- Test target: LiTryR (Leishmania infantum)
- Construct: HIS (N); made in house; host or cells: E. coli BL21 (DE3) Rossetta
- Sequence (A4HSF7 1-491): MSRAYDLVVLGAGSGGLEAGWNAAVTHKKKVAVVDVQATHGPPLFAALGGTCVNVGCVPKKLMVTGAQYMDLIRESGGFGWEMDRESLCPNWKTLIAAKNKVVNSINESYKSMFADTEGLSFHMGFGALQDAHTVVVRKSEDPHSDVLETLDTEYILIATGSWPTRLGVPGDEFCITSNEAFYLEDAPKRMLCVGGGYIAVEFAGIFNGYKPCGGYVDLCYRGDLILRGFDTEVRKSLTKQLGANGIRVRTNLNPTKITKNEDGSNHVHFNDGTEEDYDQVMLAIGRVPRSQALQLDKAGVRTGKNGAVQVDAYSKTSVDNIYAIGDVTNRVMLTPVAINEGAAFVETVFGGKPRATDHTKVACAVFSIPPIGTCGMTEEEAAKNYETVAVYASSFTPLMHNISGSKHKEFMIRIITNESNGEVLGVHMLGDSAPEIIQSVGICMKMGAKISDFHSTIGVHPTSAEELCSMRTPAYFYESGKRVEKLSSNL
- Test details: Time-dependent inhibition kinetics of LiTryR (modified DTNB-coupled assay)
- Assay type: biochemical
- Condition notes: single-step mechanism (Scheme S4); read-out: Ki, reversible single-step mechanism of time-dependent inhibition
Measurement name: pKi
# reply with the number alone; pKi is -log10 of concentration in mol/L

Report pKi for NCCCCc1cn(-c2ccc(-c3nc(CCc4ccc5c(c4)CCCN5)cs3)c(OCCN3CCNC3=O)c2)nn1.O=C(O)C(F)(F)F.O=C(O)C(F)(F)F [12q] tested on LiTryR (Leishmania infantum).
4.87
